Origin of measurements: the supplement of paper PMC10567573

B1: HDAC6 (parent)
chain: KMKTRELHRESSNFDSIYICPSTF

# Variants of: B1
# ASSAY_NAME: protein stability index of a GFP-peptide fusion (GPS, HEK-293T) (PSI 1-6); higher = more stable;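 also: lentivirally expressed fusions sorted by FACS into six bins by GFP to DsRed ratio, PSI derived from sequencing read proportions per bin multiplied by bin number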
# EXPERIMENTAL_CONTEXT: c terminus: a fixed tail appended
REPORTED_PROPERTY: protein stability index
No unit in the answer, only the number.

Example entries and their recorded answers appear below.
>>> df
   sequence_variant        reported_property  measured_value
0               R5G  protein stability index            2.39
1              N13P  protein stability index            2.49
2               E6V  protein stability index            2.23
3               M2S  protein stability index            2.37
4              T23C  protein stability index             2.5
5              N13H  protein stability index            1.58

Q. # get_value(readout='protein stability index', item= T4G )
A. 2.83

Q. // repeat for H8P and report
A. 2.56

Q. // repeat for M2F and report
A. 2.04

Q. // repeat for T4W and report
A. 2.19

Q. // repeat for L7Y and report
A. 2.41
